target.of.assay: IMP-1 (Serratia marcescens)
Sequence (P52699 19-246, looked up, species assumed): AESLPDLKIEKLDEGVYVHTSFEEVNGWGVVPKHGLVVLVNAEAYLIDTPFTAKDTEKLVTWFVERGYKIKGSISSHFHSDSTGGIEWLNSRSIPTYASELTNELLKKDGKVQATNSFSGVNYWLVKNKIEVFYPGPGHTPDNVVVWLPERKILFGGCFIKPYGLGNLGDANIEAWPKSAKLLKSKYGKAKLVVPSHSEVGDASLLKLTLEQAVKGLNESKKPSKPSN
assay.overview: Enzyme activity: determination of IC50, fluorescence assay with CCF2-FA substrate
Assay type: biochemical
test.context: IMP-1 enzyme 2 pM, CCF2-FA 1.25 μM, 2 hours at 25° C.; read-out: IMP1 IC50
pIC50: −log10 of the molar value.
# Lookup of reported pIC50 keyed by entry
metric.name: pIC50

* CC(C)C[C@H](C(=O)O)[C@H](Cc1ccc(Oc2cccc(C3CCCNC3)c2)nc1)c1nn[nH]n1 (stereo partly drawn) | 6.77
* CC(C)C[C@H](C(=O)O)[C@H](Cc1ccc(CCN2CCCCC2=O)c(F)c1)c1nn[nH]n1 | 8.31
* CC(C)C[C@H](C(=O)O)[C@H](Cc1ccc(N2CC(N3CCOCC3)C2)nc1)c1nnn[nH]1 | 6.35
* CCC[C@H](C(=O)O)[C@H](CCc1ccc(N)nc1)c1nnn[nH]1 | 4.83
* CC(C)C[C@H](C(=O)O)[C@H](Cc1ccc(N2CCCC(C(C)(C)N)C2)nc1)c1nnn[nH]1 (stereo partly drawn) | 6.26
* CC(C)C[C@H](C(=O)O)[C@H](Cc1ccc(-c2ccc(C(N)=O)cc2)c(F)c1)c1nn[nH]n1 | 8.15
* CCC[C@H](C(=O)O)[C@H](Cc1ccc(C2CCN(C(=N)N)CC2)nc1)c1nnn[nH]1 | 5.57
* CCC[C@H](C(=O)O)[C@H](Cc1ccc(C(=O)N2CCC(N)CC2)cc1)c1nnn[nH]1 | 6.70
* CCC[C@H](C(=O)O)[C@H](Cc1ccc(Br)s1)c1nnn[nH]1 | 6.55
* CC(C)(C)C(C(=O)O)[C@H](Cc1ccc(C2CCNC2)nc1)c1nnn[nH]1.O=C(O)C(F)(F)F (stereo partly drawn) [Example 430, 2,2,2-trifluoroacetate] | 6.26
* CCC[C@H](C(=O)O)[C@H](Cc1cccc(-c2ccc(N3CCNCC3)nc2)c1)c1nn[nH]n1 | 6.26
* CCC[C@H](C(=O)O)[C@H](Cc1ccc(C2CCN(C=N)CC2)cc1)c1nnn[nH]1 | 6.70
* CCC[C@H](C(=O)O)[C@H](Cc1ccc(-c2ccc(CC3CCNCC3)cc2)cc1)c1nn[nH]n1 | 7.17
* CCC[C@H](C(=O)O)[C@H](Cc1ccccc1-c1ccc(S(N)(=O)=O)cc1)c1nn[nH]n1 | 5.72
* CCC[C@H](C(=O)O)[C@H](Cc1cccc(-c2ccnc(N3CCNCC3)c2)c1)c1nn[nH]n1 | 6.74

----------
target.of.assay: NDM-1 (Klebsiella pneumoniae, UniProt C7C422)
Sequence (C7C422 29-270, looked up, species assumed): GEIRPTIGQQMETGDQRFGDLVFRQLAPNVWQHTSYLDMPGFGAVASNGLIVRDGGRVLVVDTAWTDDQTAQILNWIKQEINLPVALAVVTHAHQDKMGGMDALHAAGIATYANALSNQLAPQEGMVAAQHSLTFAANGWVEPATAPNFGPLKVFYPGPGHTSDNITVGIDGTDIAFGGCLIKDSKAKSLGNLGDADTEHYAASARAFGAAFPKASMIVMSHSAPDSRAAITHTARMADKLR
assay.overview: Enzyme activity: determination of IC50, fluorescence assay with CCF2-FA substrate
Type: biochemical
test.context: enzyme 1 pM, CCF2-FA 1.25 μM, 2 hours at 25° C.; read-out: NDM1 IC50
# Lookup of reported IC50 keyed by entry
metric.name: IC50 (nM)

• CCC[C@H](C(=O)O)[C@H](Cc1cccc(Br)c1)c1nn[nH]n1 = 12
• CC(C)[C@H](C(=O)O)[C@H](Cc1ccc(-c2ccc(CN)cc2)cc1)c1nnn[nH]1 = 34
• CC(C)[C@H](C(=O)O)[C@H](Cc1ccc(NC(CO)CO)nc1)c1nnn[nH]1 = 3600
• CCC[C@H](C(=O)O)[C@H](Cc1ccc(-c2cccc(OC3CCNCC3)n2)cc1)c1nn[nH]n1 = 170

Attribution: patent US9839642B2
